Molecular target: UniProtKB O00370
Test: fluorescent oligonucleotide nicking assay
Type: biochemical
Details: in vitro assays with purified EN
READOUT_KIND: in vitro activity against EN (in words)

INSERT INTO results (item_smiles, experimental_result) VALUES
  ('O=C(Nc1ccc(S(=O)(=O)NCc2ccco2)cc1)c1cc(NS(=O)(=O)c2cccs2)cc(NS(=O)(=O)c2cccs2)c1', 'clear activity in vitro'),
  ('COc1ccc([N+](=O)[O-])cc1NC(=O)c1ccc2c(c1)N(Cc1cc(C)ccc1C)C(=O)c1ccccc1S2(=O)=O', 'clear activity in vitro');

---

Biological target: L1 EN (Homo sapiens (Human), UniProt O00370)
Sequence (O00370 1-239): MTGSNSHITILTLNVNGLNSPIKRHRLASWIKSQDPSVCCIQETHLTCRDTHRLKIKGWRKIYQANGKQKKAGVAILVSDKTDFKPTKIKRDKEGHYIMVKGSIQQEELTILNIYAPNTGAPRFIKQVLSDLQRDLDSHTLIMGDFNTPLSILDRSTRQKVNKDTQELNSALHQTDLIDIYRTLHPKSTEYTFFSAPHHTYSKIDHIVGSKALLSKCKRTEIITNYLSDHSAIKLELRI
Test: fluorescent oligonucleotide nicking assay
Format: biochemical
READOUT_KIND: in vitro activity against EN (in words)

INSERT INTO measurements (item_smiles, system_name, readout_kind, experimental_result) VALUES
  ('O=C(O)[C@H](CCCCNc1ccc([N+](=O)[O-])cc1[N+](=O)[O-])Nc1ccc([N+](=O)[O-])cc1[N+](=O)[O-]', 'L1 EN (Homo sapiens (Human), UniProt O00370)', 'in vitro activity against EN (in words)', 'clear activity in vitro'),
  ('Cc1cc(=O)oc2c3c(ccc12)O/C(=N/Nc1ccc([N+](=O)[O-])cc1[N+](=O)[O-])C3=O', 'L1 EN (Homo sapiens (Human), UniProt O00370)', 'in vitro activity against EN (in words)', 'clear activity in vitro');

// data source = patent US20240207249A1
